For each of the compounds below, state its growth inhibition.
assay: NCI Yeast Anticancer Drug Screen. Data for the sgs1 mgt1 strain (AID 161);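 further: 0% = growth of cultures given vehicle only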; details: S. cerevisiae sgs1 mgt1 strain, stronger effect = higher value; at 50.0 µM unless noted
The panel holds about 79,000 compounds, 15% with a hit somewhere; the sample as a whole holds those more often.
Just the number please, in %, no unit attached.

Reported growth inhibition ( `COc1ccc(C(N2CCNCC2)N2CCNCC2)cc1` ) = 19.6

Reported growth inhibition ( `CCO/C([O-])=N\[n+]1c(C)nc2cc3c(cc2c1C)OCO3` ) = 1.2

Reported growth inhibition ( `COc1ccc(CCn2c(=O)c3ccccc3n(C)c2=O)cc1` ) = 13.2

Reported growth inhibition ( `CC(C)(CO)CNC(=O)C(C)(C)CO` ) = -5

---

assay: NCI Yeast Anticancer Drug Screen. Data for the mlh1 rad18 strain (AID 175); conditions: S. cerevisiae mlh1 rad18 strain growth inhibition, stronger effect = higher value; at 50.0 µM unless noted
This is part of a sample that, as a whole, favours compounds with a hit. Of some 79,000 tested, about 15% had one in any assay. Where a SMILES comes first, the peptide text is derived from it. The star is where a group is joined. Cbz = O=C(OCc1ccccc1)*
For each of the molecules below, state its growth inhibition.
Just the number please, in %, no unit attached.

Reported growth inhibition ( NC(=O)C(Cc1ccccc1)NC(=O)C(Cc1ccccc1)NC(=O)C(Cc1ccccc1)NC(=O)OCc1ccccc1 (stereo not drawn) (Cbz-Phe-Phe-Phe-NH2; configuration not given here) ) = 21.9

Reported growth inhibition ( `Cc1noc(NC(=O)Nc2ccccc2F)c1C#N` ) = -2.25

Reported growth inhibition ( `Cc1ccc([N+](=O)[O-])cc1N` ) = 14.7

Reported growth inhibition ( `S=C(c1ccco1)N1CCOCC1` ) = 10.8

Reported growth inhibition ( `NC(=O)C(=Cn1c(=S)[nH]c2ccc([N+](=O)[O-])cc21)C(N)=O` ) = 31.9

Reported growth inhibition ( `Cc1ccc(C2=Nc3cc(C)c(Cl)cc3S(=O)(=O)NN2)cc1` ) = -26.8

Reported growth inhibition ( `N#Cc1cccc2c1Nc1ccccc1S2` ) = -19.9

---

experiment: NCI Yeast Anticancer Drug Screen. Data for the cln2 rad14 strain (AID 165);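 further: 0% = growth equal to vehicle treated cultures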; conditions: S. cerevisiae cln2 rad14 strain, stronger effect = higher value; at 50.0 µM unless noted
Compounds without any hit were thinned out: in the full panel of roughly 79,000, 15% have a hit. Activity calls are given as the source filed them. Cut-off read from the data, not from the text of the source: active = growth inhibition above about 70%; inactive = the rest.
For each of the molecules below, state its growth inhibition.

Reported growth inhibition ( `Cc1c(CCN2CCOCC2)c(N2CCOCC2)n2c(nc3ccccc32)c1C#N` ) = 1% (inactive)

Reported growth inhibition ( `CC(C)CNC(=O)c1ccccc1Cl` ) = -32.4% (inactive)

Reported growth inhibition ( `COc1ccc2c(c1)c(C)cc[n+]2C` ) = -9.65% (inactive)

Reported growth inhibition ( `CCCc1ccc(C)c(CCC)c1O` ) = -17.3% (inactive)

Reported growth inhibition ( `N#Cc1ccc(OC(=O)Nc2ccc(F)cc2)cc1` ) = 18.6% (inactive)

Reported growth inhibition ( `CC1=CC(=O)CC(C)(C)C1` ) = 6.4% (inactive)

Reported growth inhibition ( `COC(=O)c1ccc(Oc2nc3ccc(C(F)(F)F)cc3nc2-c2ccccc2)cc1` ) = -34.1% (inactive)

Reported growth inhibition ( COC1=NS(=O)(=O)C2CCCCCCC2O1 (stereo not given) ) = -74.2% (inactive)

Reported growth inhibition ( `CCOC(=O)c1[nH]c(-c2[nH]c(-c3[nH]c(-c4[nH]c(C(=O)OCC)c(C)c4C(=O)OCC)c(C(=O)OCC)c3C)c(C)c2C(=O)OCC)c(C(=O)OCC)c1C` ) = 6.85% (inactive)

Reported growth inhibition ( `CCOC(=O)O/C(=C\c1ccc(OC)cc1)c1c(OC(=O)OCC)n(C(=O)OCC)c2ccccc12` ) = 9.95% (inactive)

Reported growth inhibition ( `COc1ccc(C(=O)CN2CCN(c3ccccc3)CC2)cc1` ) = -52.6% (inactive)

Reported growth inhibition ( `c1cc(-c2ncc[nH]2)ccn1` ) = -4.05% (inactive)

Reported growth inhibition ( `NC(CSS(=O)(=O)O)=NCCCOCc1ccccc1` ) = 10% (inactive)

Reported growth inhibition ( `CC(=O)Nc1c(C)cc([N+](=O)[O-])c2ccccc12` ) = -9.45% (inactive)

Reported growth inhibition ( `O=C1CCC(=O)N1CNc1cccc(NCN2C(=O)CCC2=O)c1` ) = 10.5% (inactive)

Reported growth inhibition ( CCN(CC)CCC1CCCCN1CC(=O)N1c2ccccc2NC(=O)c2ccccc21 (stereo not given) ) = 8.2% (inactive)

Reported growth inhibition ( `O=C(O)c1ccc(/C=N/N=C2c3ccccc3-c3ccccc32)cc1` ) = 72.1% (active)

Reported growth inhibition ( c1ccc(C2(c3ccc(C4(c5ccccc5)Oc5ccccc5S4)[nH]3)Oc3ccccc3S2)cc1 (stereo not given) ) = 11.6% (inactive)

Reported growth inhibition ( `CC(=O)c1ccccc1NC=O` ) = -40.9% (inactive)

Reported growth inhibition ( `Clc1ccc(/C=N\OCc2ccc(Cl)c(Cl)c2)cc1Cl` ) = -17.9% (inactive)

Reported growth inhibition ( `CC(=O)Oc1c(I)cc(Cc2nc(C)oc2C)cc1I` ) = 1% (inactive)

Reported growth inhibition ( `O=C(O)CCCn1nnc2c(=O)[nH][nH]c(=O)c21` ) = -7.75% (inactive)

Reported growth inhibition ( `CC(=O)CC(=O)Nc1ccc(-c2ccc(NC(=O)CC(C)=O)c(Cl)c2)cc1Cl` ) = 1.9% (inactive)

Reported growth inhibition ( OCC1=CC(O)C2C=COC(OC3OC(CO)C(O)C(O)C3O)C12 (stereo not given) ) = -6.45% (inactive)

Reported growth inhibition ( `C=CCOC(=O)c1ccc(C(C)C)cc1` ) = 7.6% (inactive)

---

assay: NCI Yeast Anticancer Drug Screen. Data for the rad50 strain (AID 155);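 further: 0% = growth of vehicle-only cultures of the same strain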; conditions: S. cerevisiae rad50 strain growth inhibition, stronger effect = higher value; at 50.0 µM unless noted
This is part of a sample that, as a whole, favours compounds with a hit. Of some 79,000 tested, about 15% had one in any assay.
For each of the compounds below, state its growth inhibition.
Just the number please, in %, no unit attached.

Reported growth inhibition ( `O=P(O)(O)c1ccc(-c2ccc(I)cc2)cc1` ) = 11.7

Reported growth inhibition ( `Cc1ccc2ccc3ccccc3c2c1` ) = 46

Reported growth inhibition ( `OCCN1CCN=C1Cc1ccccc1` ) = 4.75

Reported growth inhibition ( `COc1c(Cl)cc(C(c2cc(Cl)c(OC)c(Cl)c2)C(Cl)(Cl)Cl)cc1Cl` ) = -11.7

Reported growth inhibition ( CC(=O)OC(C(=O)NNC(=O)OC(C)(C)C)c1ccccc1 (stereo not given) ) = -35.6

Reported growth inhibition ( CC1=C2CN(C(=O)OCC(C)C)CCC2C2=C(C(=O)c3ccccc3C2=O)C1C (stereo not given) ) = 1.4

Reported growth inhibition ( `Nc1nnc2nc(CC(=O)c3ccc(Cl)c(Cl)c3)/c(=C/C(=O)c3ccc(Cl)c(Cl)c3)n12` ) = 11.5

Reported growth inhibition ( O=C(NC(Cc1ccc(I)cc1)C(=O)O)c1ccc(Br)cc1 (stereo not given) ) = -4.3

Reported growth inhibition ( `NNC(=O)c1c(O)ccc2ccccc12` ) = 19.2

Reported growth inhibition ( O=[N+]([O-])c1ccc(CS(=O)Cc2ccccc2)cc1 (stereo not given) ) = 10.9

Reported growth inhibition ( CN1CCCC1CCN (stereo not given) ) = 0.15

Reported growth inhibition ( COC(C(=O)NN)c1ccccc1 (stereo not given) ) = -25.1

Reported growth inhibition ( `COc1cc2cnc3c4cc(OC(C)C)c(OC)cc4ccc3c2cc1OC` ) = -10

Reported growth inhibition ( `COCCOC(=O)COc1ccccc1` ) = 22.1

Reported growth inhibition ( `COc1cc(C(=O)N2CCOC23CCN(Cc2ccccc2)CC3)cc(OC)c1OC` ) = -1.5

Reported growth inhibition ( `COc1c(OC(C)=O)ccc(/C=C2\N=C(C)OC2=O)c1[N+](=O)[O-]` ) = -8.3

Reported growth inhibition ( `CN(c1ccccc1)c1c(Cl)c(=O)oc2c1ccc1nc(-c3ccccc3)sc12` ) = 44.6

Reported growth inhibition ( `COc1cccc2cc3c(cc12)C(=O)C(C)=C(C)C3=O` ) = -1.65

Reported growth inhibition ( `C/C(=N\O)C(=O)c1ccc(C)cc1` ) = -0.05

Reported growth inhibition ( CC(NC(=O)CNC(=O)OCc1ccccc1)C(=O)O (stereo not given) ) = 3.55

Reported growth inhibition ( `CC(C)COC(=O)/C=C/c1ccccc1` ) = 19.8

Reported growth inhibition ( OC(CN1CCCCC1)c1cc(-c2ccccc2)no1 (stereo not given) ) = 31.8

Reported growth inhibition ( CCOC(=O)C(Sc1ccc(C)cc1)C(Sc1ccc(C)cc1)C(=O)OCC (stereo not given) ) = 0.6

Reported growth inhibition ( `COC(=O)/C([O-])=C(\C(=O)OC)[n+]1cc(Br)cc2ccccc21` ) = 4.15

Reported growth inhibition ( `NC(=S)c1cccc(OCCc2ccccc2)c1` ) = 97.7

Ref: PubChem BioAssay (NCI)
